Tested on: porcine monocyte-derived macrophages (MDM)
Assay Details: In vitro cell viability, CCK-8
Assay type: cell-based
Study Conditions: Sus scrofa, Macrophage; 10% fetal bovine serum, 24 h; read-out: IC50 MDM 10% FSB
Each item that follows carries a reported IC50.

Molecule: O=C(/C=C/c1ccc(Cl)c(Cl)c1)Nc1ccc(OC(F)(F)F)cc1 [2k]
IC50: > 10 µM

# get_value(readout= IC50, system= porcine monocyte-derived macrophages (MDM)) for O=C(/C=C/c1ccc(Cl)cc1)Nc1cc(Cl)cc(Cl)c1 [1p]
> 10 µM

For the record O=C(/C=C/c1ccc(Cl)c(Cl)c1)Nc1cc(C(F)(F)F)cc(C(F)(F)F)c1 [2q] , what value of IC50 is listed for porcine monocyte-derived macrophages (MDM)?
5 to 10 µM

Please tell me: IC50 of O=C(/C=C/c1ccc(Cl)cc1)Nc1cc(C(F)(F)F)cc(C(F)(F)F)c1 [1q] , system porcine monocyte-derived macrophages (MDM)?
> 10 µM

# query: IC50 | item O=C(/C=C/c1ccc(Cl)c(Cl)c1)Nc1cccc(C(F)(F)F)c1 [2i] | system: porcine monocyte-derived macrophages (MDM)
> 10 µM

----------
Assay Details: Lipophilicity determination by RP-HPLC (log k, log D)
Assay type: physicochemical
Study Conditions: MeOH 72%/acetate buffered saline pH 6.5
Measurement Name: log D6.5
Enter a number only.

// known answers, use as guide
Molecule Smiles: O=C(/C=C/c1ccc(Cl)c(Cl)c1)Nc1ccc(F)cc1F
log D6.5: 0.7094
//
Molecule Smiles: O=C(/C=C/c1ccc(Cl)cc1)Nc1ccc(C(F)(F)F)cc1
log D6.5: 0.8541
//
Molecule Smiles: O=C(/C=C/c1ccc(Cl)cc1)Nc1cc(Cl)ccc1Cl
log D6.5: 0.8986
//
Molecule Smiles: O=C(/C=C/c1ccc(Cl)cc1)Nc1ccc(Cl)cc1Cl
log D6.5: 0.9141

Recorded log D6.5 of O=C(/C=C/c1ccc(Cl)c(Cl)c1)Nc1cc(F)cc(F)c1 , please.
0.9345

----------
Assay Details: Lipophilicity determination by RP-HPLC (log k, log D)
Assay type: physicochemical
Study Conditions: MeOH 72%/H2O 28%
Each entry below carries its recorded log k.

Solved entries:
Molecule Smiles: O=C(/C=C/c1ccc(Cl)cc1)Nc1cc(Cl)ccc1Cl
Recorded Value: 0.9507
//
Molecule Smiles: O=C(/C=C/c1ccc(Cl)cc1)Nc1ccccc1C(F)(F)F
Recorded Value: 0.5506
//
Molecule Smiles: O=C(/C=C/c1ccc(Cl)c(Cl)c1)Nc1cc(C(F)(F)F)cc(C(F)(F)F)c1
Recorded Value: 1.4731
//
Molecule Smiles: O=C(/C=C/c1ccc(Cl)c(Cl)c1)Nc1cccc(C(F)(F)F)c1
Recorded Value: 0.9873
//
Molecule Smiles: O=C(/C=C/c1ccc(Cl)cc1)Nc1cccc(F)c1
Recorded Value: 0.7859

Need log k, item O=C(/C=C/c1ccc(Cl)cc1)Nc1ccc(Cl)cc1
0.5598

Name the recorded log k for O=C(/C=C/c1ccc(Cl)cc1)Nc1ccccc1 .
0.4490

Look up log k for this compound: O=C(/C=C/c1ccc(Cl)cc1)Nc1cc(Cl)cc(Cl)c1
1.1899

# input compound: O=C(/C=C/c1ccc(Cl)c(Cl)c1)Nc1ccccc1F ; wanted: its log k
0.7764

----------
Assay Details: Lipophilicity determination by RP-HPLC (log k, log D)
Type: physicochemical
Study Conditions: MeOH 72%/acetate buffered saline pH 7.4
Measurement Name: log D7.4
Respond numerically, and do not add a unit to the figure.

Sample answers from the record:
Molecule Smiles: O=C(/C=C/c1ccc(Cl)cc1)Nc1ccc(Cl)cc1Cl
log D7.4: 0.9170
--
Molecule Smiles: O=C(/C=C/c1ccc(Cl)cc1)Nc1ccc(OC(F)(F)F)cc1
log D7.4: 0.8754
--
Molecule Smiles: O=C(/C=C/c1ccc(Cl)cc1)Nc1ccc(F)cc1F
log D7.4: 0.5223
--
Molecule Smiles: O=C(/C=C/c1ccc(Cl)c(Cl)c1)Nc1ccc(OC(F)(F)F)cc1
log D7.4: 1.0053
--
Molecule Smiles: O=C(/C=C/c1ccc(Cl)cc1)Nc1cc(C(F)(F)F)cc(C(F)(F)F)c1
log D7.4: 1.2980
--
Molecule Smiles: O=C(/C=C/c1ccc(Cl)cc1)Nc1ccccc1Cl
log D7.4: 0.4724
--
Molecule Smiles: O=C(/C=C/c1ccc(Cl)cc1)Nc1ccccc1
log D7.4: 0.4515
--
Molecule Smiles: O=C(/C=C/c1ccc(Cl)c(Cl)c1)Nc1ccc(F)cc1
log D7.4: 0.8660

Can you share its log D7.4? I mean this compound: O=C(/C=C/c1ccc(Cl)c(Cl)c1)Nc1ccc(C(F)(F)F)cc1
0.9945

Field request: log D7.4 | item: O=C(/C=C/c1ccc(Cl)cc1)Nc1cccc(C(F)(F)F)c1
0.8105

Field request: log D7.4 | item: O=C(/C=C/c1ccc(Cl)c(Cl)c1)Nc1ccc(Cl)cc1Cl
1.0565

Look at this compound and give its reported log D7.4. O=C(/C=C/c1ccc(Cl)c(Cl)c1)Nc1cccc(F)c1
0.8735

I'd like to know its log D7.4. The compound in question is O=C(/C=C/c1ccc(Cl)cc1)Nc1cc(Cl)ccc1Cl
0.9010

Quick one: log D7.4 of O=C(/C=C/c1ccc(Cl)c(Cl)c1)Nc1ccc(Cl)cc1 ?
0.7021

Record request: log D7.4 value, item O=C(/C=C/c1ccc(Cl)c(Cl)c1)Nc1ccc(F)cc1F
0.6632

log D7.4 for O=C(/C=C/c1ccc(Cl)c(Cl)c1)Nc1cc(Cl)ccc1Cl ?
1.0474

Sample O=C(/C=C/c1ccc(Cl)cc1)Nc1cc(Cl)cc(Cl)c1 — what was its log D7.4?
1.1366

Looking for the measured log D7.4 of O=C(/C=C/c1ccc(Cl)c(Cl)c1)Nc1cc(Cl)cc(Cl)c1 , can you help?
1.3080

Requested field: log D7.4. Item: O=C(/C=C/c1ccc(Cl)c(Cl)c1)Nc1cc(C(F)(F)F)cc(C(F)(F)F)c1
1.4717

Requested read-out: log D7.4. Entry: O=C(/C=C/c1ccc(Cl)cc1)Nc1ccc(Cl)cc1
0.5065

log D7.4 lookup needed for O=C(/C=C/c1ccc(Cl)cc1)Nc1cc(F)cc(F)c1 , thanks.
0.7537

Find the recorded log D7.4 belonging to O=C(/C=C/c1ccc(Cl)c(Cl)c1)Nc1ccccc1 and report it.
0.6354

Field request: log D7.4 | item: O=C(/C=C/c1ccc(Cl)c(Cl)c1)Nc1cccc(Cl)c1
0.7616

Please look up its log D7.4: O=C(/C=C/c1ccc(Cl)c(Cl)c1)Nc1cc(F)cc(F)c1
0.8882

Reported log D7.4 for O=C(/C=C/c1ccc(Cl)c(Cl)c1)Nc1ccccc1C(F)(F)F : what is it?
0.6526

Which log D7.4 value belongs to O=C(/C=C/c1ccc(Cl)c(Cl)c1)Nc1ccc(OC(F)(F)F)cc1Br ?
1.2178

Find the recorded log D7.4 belonging to O=C(/C=C/c1ccc(Cl)cc1)Nc1ccc(OC(F)(F)F)cc1Br and report it.
1.0284

Would you mind telling me what log D7.4 value was observed for O=C(/C=C/c1ccc(Cl)c(Cl)c1)Nc1cccc(C(F)(F)F)c1 ?
0.9505

Form field: reported log D7.4 of O=C(/C=C/c1ccc(Cl)cc1)Nc1cccc(Cl)c1
0.5666
